# system: NLRP3 (Homo sapiens)
# Construct: Seed THP-1 cells (25,000 cells/well) containing 1.0 μg/ml LPS in 40 μl of RPMI medium; host or cells: THP-1 cells
# Sequence (Q96P20 whole entry): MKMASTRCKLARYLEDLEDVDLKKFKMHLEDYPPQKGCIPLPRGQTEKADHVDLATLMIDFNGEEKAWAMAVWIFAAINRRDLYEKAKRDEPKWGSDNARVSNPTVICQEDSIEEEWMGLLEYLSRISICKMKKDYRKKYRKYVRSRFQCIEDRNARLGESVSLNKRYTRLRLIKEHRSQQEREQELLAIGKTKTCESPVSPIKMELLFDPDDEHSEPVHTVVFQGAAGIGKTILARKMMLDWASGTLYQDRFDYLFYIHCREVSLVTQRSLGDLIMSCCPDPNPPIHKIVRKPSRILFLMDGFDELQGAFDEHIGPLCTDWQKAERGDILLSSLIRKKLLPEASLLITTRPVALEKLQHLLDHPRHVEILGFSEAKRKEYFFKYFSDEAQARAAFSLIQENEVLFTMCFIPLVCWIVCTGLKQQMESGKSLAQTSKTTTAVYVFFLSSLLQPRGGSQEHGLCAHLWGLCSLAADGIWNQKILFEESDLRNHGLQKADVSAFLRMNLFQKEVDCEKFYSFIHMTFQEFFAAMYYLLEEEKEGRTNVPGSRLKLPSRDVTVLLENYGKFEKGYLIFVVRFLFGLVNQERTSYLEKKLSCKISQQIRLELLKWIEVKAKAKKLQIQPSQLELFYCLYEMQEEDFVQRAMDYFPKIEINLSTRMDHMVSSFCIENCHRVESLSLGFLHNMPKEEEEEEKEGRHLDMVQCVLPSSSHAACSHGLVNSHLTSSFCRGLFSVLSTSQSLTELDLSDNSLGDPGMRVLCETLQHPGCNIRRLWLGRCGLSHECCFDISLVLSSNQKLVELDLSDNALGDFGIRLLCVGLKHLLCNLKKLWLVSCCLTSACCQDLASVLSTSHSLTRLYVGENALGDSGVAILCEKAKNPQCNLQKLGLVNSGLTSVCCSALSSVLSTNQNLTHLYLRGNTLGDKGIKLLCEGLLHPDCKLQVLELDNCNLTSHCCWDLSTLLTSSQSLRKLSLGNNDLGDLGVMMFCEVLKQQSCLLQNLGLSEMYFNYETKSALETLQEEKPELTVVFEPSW
# procedure-summary: THP-1 Cells Pyroptosis Assay
# Assay type: cell-based
# measurement-context: THP-1 cells with 1.0 μg/ml LPS; compound 3 hours; nigericin 5 μM 1 hr; resazurin readout
Each entry below carries its reported pIC50.
Interpret pIC50 as the negative base-10 log of the concentration measured in mol/L.

molecule: CCN1CC[C@@H](F)[C@@H](Nc2nc3nc(-c4c(C)cc(Cl)cc4O)ccc3o2)C1 [Example 99A]
endpoint-name: pIC50
result-number: 8.72
//
molecule: CCN1CCC[C@@H](Nc2nc3nc(-c4c(O)cccc4C#N)ccc3o2)C1 [Example 119]
endpoint-name: pIC50
result-number: 7.64
//
molecule: CCN1CCC[C@@H](Nc2nc3nc(-c4c(O)cc(Cl)cc4C#N)ccc3o2)C1 [Example 23]
endpoint-name: pIC50
result-number: 8.38
//
molecule: Cc1cc(C(F)(F)F)cc(O)c1-c1cc(C)c2oc(N[C@@H]3CCCN(C)C3)nc2n1 [Example 33]
endpoint-name: pIC50
result-number: 8.24
//
molecule: Cc1cc(Cl)cc(O)c1-c1ccc2oc(N(CCO)[C@@H]3CCCN(C)C3)nc2n1 [Example 98]
endpoint-name: pIC50
result-number: 7.95
//
molecule: CCN1CCC[C@@H](Nc2nc3nc(-c4c(C)cc(C#N)cc4O)cc(OC)c3o2)C1 [Example 111]
endpoint-name: pIC50
result-number: 8.66

Could you share which pIC50 value was measured for Cc1cc(C(F)(F)F)cc(O)c1-c1ccc2oc(N3CCCC(O)C3)nc2n1 (single isomer, unassigned) [Example 3B] ? 7.54

Follow-up entry: CCN1CCC2CCN(c3nc4nc(-c5c(C)cc(C#N)cc5O)ccc4o3)C2C1 (single isomer, unassigned) [Example 72B] 6.51
